Reference source for all entries: ChEMBL document CHEMBL3351968

Target: UniProt:P33535
Sequence (P33535 whole entry): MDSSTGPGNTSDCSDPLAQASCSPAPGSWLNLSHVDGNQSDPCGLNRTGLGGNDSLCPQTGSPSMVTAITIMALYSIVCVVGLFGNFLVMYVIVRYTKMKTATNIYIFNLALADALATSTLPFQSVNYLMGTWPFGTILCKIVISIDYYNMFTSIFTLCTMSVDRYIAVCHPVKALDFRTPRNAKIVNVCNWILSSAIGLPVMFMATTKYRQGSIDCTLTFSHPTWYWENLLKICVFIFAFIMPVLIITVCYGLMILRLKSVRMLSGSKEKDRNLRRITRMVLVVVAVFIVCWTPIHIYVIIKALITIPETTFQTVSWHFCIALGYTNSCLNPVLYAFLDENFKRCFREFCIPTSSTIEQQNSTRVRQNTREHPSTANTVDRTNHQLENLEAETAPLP
Square brackets hold non-standard residues; d marks the D form. Peptide text beside a SMILES is read from it. ξ: configuration not given here. NMeY = CN[C@@H](Cc1ccc(O)cc1)C(=O)O; NMeF = CN[C@@H](Cc1ccccc1)C(=O)O; ξP = O=C(O)C1CCCN1
Label true when Ki is strictly below 1000 nM; at or above that, label false.

>  <COMPOUND>
CC(C)C[C@@H](CN)NC[C@H](Cc1ccccc1)N(C)C[C@@H]1CCCN1C[C@H](Cc1ccc(O)cc1)N(C)C

>  <CATEGORY>
true

$$$$
>  <COMPOUND>
CC(C)C[C@H]1CNC(=S)N1C[C@H](Cc1ccccc1)N(C)CCCCCN1C[C@H](Cc2ccc(O)cc2)NC1=S

>  <CATEGORY>
false

$$$$
>  <COMPOUND>
CC(C)C[C@H]1CNC(=O)C(=O)N1C[C@H](Cc1ccccc1)N(C)C[C@@H]1CCCN1C[C@H](Cc1ccc(O)cc1)N(C)C

>  <CATEGORY>
true

$$$$
>  <COMPOUND>
CC(C)C[C@H]1CNC(=S)N1C[C@H](Cc1ccccc1)N(C)CCN1CCN(C[C@H](Cc2ccc(O)cc2)N(C)C)C1=S

>  <CATEGORY>
true

$$$$
>  <COMPOUND>
CN[C@@H](Cc1ccc(O)cc1)C(=O)N1CCCC1C(=O)N(C)[C@@H](Cc1ccccc1)C(=O)N[C@@H](CC(C)C)C(N)=O (stereo partly drawn) (H-[NMeY][ξP][NMeF]L-NH2)

>  <CATEGORY>
false

$$$$

Query: Is it true that Ki reported for "CC(C)C[C@H]1CNC(=S)N1C[C@H](Cc1ccccc1)N(C)CCN(C)CCN1C[C@H](Cc2ccc(O)cc2)N(C)C1=S" is less than 1000 nM?
Reply: false
